Reference source for all entries: patent US20230116602A1

pKd for assorted compounds
Biological target: MCL1 (Homo sapiens, UniProt Q07820)
Sequence (Q07820 whole entry): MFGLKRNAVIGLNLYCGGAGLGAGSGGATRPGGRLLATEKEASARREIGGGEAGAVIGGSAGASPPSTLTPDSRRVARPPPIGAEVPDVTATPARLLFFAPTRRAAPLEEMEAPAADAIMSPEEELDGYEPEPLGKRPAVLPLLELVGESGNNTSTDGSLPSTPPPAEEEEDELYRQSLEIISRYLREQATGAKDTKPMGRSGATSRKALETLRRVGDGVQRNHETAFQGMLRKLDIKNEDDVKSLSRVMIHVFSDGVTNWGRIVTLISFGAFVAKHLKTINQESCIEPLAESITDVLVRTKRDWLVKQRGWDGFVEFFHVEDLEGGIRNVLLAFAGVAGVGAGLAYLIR
Test: MCL1 affinity assay (competition binding, qPCR readout)
Conditions: recombinant MCL1, 11-point 3-fold dilution series
Protocol: Recombinant MCL1, BCL2 and BCXL proteins were prepared in either an E. coli host derived from the BL21 strain or in HEK-293 cells. The recombinant proteins were subsequently tagged with DNA for qPCR detection. […] The recombinant protein concentration in the eluates was measured by qPCR. Kds were determined using an 11-point 3-fold compound dilution series with three DMSO control points.
pKd: −log10 of the molar value.

COc1cccc(-c2ncc3snc(O[C@H](Cc4ccccc4OCc4ccnn4CC(F)(F)F)C(=O)O)c3c2-c2ccc(OCCN3CCN(C)CC3)c(Cl)c2C)c1 (atropisomer, axis not shown) [Compound 23]: 6.30 to 7.00
Cc1c(-c2c(C3CC3)ncc3snc(O[C@H](Cc4ccccc4OCc4ccnn4CC(F)(F)F)C(=O)O)c23)ccc(OCCN2CCN(C)CC2)c1Cl (atropisomer, axis not shown) [Compound 30]: ≥ 7.00
COc1cccc(-c2ncc3snc(O[C@H](Cc4ccccc4OCc4ccnc(-c5cc(F)ccc5OC)n4)C(=O)O)c3c2-c2ccc(OCCN3CCN(C)CC3)c(Cl)c2C)c1 (atropisomer, axis not shown) [Compound 67]: ≥ 7.00
Cc1c(-c2c(-c3cccc(F)c3)ncc3snc(O[C@H](Cc4ccccc4OCc4ccnc(OCC(F)(F)F)n4)C(=O)O)c23)ccc(OCCN2CCN(C)CC2)c1Cl (atropisomer, axis not shown) [Compound 69]: ≥ 7.00

Ask: # get_value(readout='pKd', item= Cc1c(-c2c(-c3ccc4c(ccn4C)c3)ncc3snc(O[C@H](Cc4ccccc4OCc4ccnn4CC(F)(F)F)C(=O)O)c23)ccc(OCCN2CCN(C)CC2)c1Cl (atropisomer, axis not shown) [Compound 10] )
Result: < 5.82
